// data source = patent US6498180B1

Entries with reported Ki on mGluR3 (Homo sapiens, UniProt Q14832)
Sequence (Q14832 23-879): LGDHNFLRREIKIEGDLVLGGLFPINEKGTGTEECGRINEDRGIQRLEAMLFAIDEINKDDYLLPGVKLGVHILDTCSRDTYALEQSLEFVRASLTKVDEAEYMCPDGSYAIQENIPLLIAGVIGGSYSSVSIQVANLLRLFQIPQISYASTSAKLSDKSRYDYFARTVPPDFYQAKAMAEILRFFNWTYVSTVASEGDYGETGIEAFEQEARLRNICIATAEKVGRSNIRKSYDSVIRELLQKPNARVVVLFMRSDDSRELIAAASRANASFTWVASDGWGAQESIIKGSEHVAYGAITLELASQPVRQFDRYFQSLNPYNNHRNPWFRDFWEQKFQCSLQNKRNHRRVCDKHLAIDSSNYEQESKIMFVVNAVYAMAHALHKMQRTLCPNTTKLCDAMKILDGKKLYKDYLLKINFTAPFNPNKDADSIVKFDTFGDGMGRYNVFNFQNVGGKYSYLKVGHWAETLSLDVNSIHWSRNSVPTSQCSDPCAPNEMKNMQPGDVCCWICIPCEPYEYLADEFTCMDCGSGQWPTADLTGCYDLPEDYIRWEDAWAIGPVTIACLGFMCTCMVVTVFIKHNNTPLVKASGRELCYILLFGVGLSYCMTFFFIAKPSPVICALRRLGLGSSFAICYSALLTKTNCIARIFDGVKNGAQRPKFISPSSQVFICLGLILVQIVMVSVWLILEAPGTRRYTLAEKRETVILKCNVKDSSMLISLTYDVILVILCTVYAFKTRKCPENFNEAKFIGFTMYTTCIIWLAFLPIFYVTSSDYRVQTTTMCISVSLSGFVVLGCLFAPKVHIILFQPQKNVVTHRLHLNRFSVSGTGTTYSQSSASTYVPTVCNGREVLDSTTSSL
# number only, unit nM dropped from output

N[C@H](C(=O)O)[C@H]1[C@@H](CO)[C@@H]1C(=O)O (racemic) [Example 1]; 7.9

# value lookup — system mGluR3 (Homo sapiens, UniProt Q14832), readout Ki, item N[C@H](C(=O)O)[C@H]1[C@@H](CO)[C@@H]1C(=O)O (single isomer, unassigned) [Example 22] 5.1

----------
TEST_TARGET: mGluR3 (Homo sapiens, UniProt Q14832)
EXPERIMENT_NOTES: decrease of forskolin-stimulated cAMP in cells expressing mGluR3
METRIC_NAME: pEC50
Notebook: values listed as pEC50 are -log10 of the concentration (mol/L).

# value lookup — system mGluR3 (Homo sapiens, UniProt Q14832), readout pEC50, item N[C@H](C(=O)O)[C@H]1[C@@H](CO)[C@@H]1C(=O)O (racemic) 7.94
